# measured.target: P2X purinoceptor 7 (Homo sapiens, UniProt Q99572)
# assay.notes: Antagonist activity at P2X7 receptor in human THP1 cells assessed as inhibition of BzATP-induced ethidium uptake
# Assay type: functional, cell-based, THP-1
pIC50: −log10 of the molar value.
measured.endpoint: pIC50

>  <given.smiles>
O=C(NCC1(O)CCCCC1)c1cc(-n2ncc(=O)[nH]c2=O)ccc1Cl

>  <pIC50>
6.40

$$$$

I. O=C(NCCc1ccccc1Cl)c1cc(-n2ncc(=O)[nH]c2=O)ccc1Cl
II. Cc1ccccc1Nc1ncnn1-c1cccc(Cl)c1Cl
III. O=C(Cc1ccc(F)c(C(F)(F)F)c1)Nc1cccc2c(=O)n([C@@H]3CNC[C@H]3O)ccc12
IV. O=C(NCC12CC3CC(CC(C3)C1)C2)c1cc(-n2ncc(=O)[nH]c2=O)ccc1Cl
V. O=C(NNc1cccc2ncccc12)C12CC3CC(CC(C3)C1)C2
Hey, quick one: sort these by pIC50, largest value first please. Response format: the labels, sorted as the prompt asks.
III, V, II, IV, I
(III: 8.60, V: 8.00, II: 7.70, IV: 7.30, I: 6.50)

###

# assay.notes: Protein binding in rat plasma
# Type: ADME, cell-free
# condition.info: read-out: PB (converted)
measured.endpoint: fraction unbound
Keep the answer to the number alone.

# compound `Cc1ccc(C(=O)N2CC3CNCC(C2)O3)cc1NC(=O)CC12CC3CC(CC(C3)C1)C2` ; its fraction unbound = 0.34

###

# measured.target: UniProt Q99572
# Sequence (Q99572 whole entry): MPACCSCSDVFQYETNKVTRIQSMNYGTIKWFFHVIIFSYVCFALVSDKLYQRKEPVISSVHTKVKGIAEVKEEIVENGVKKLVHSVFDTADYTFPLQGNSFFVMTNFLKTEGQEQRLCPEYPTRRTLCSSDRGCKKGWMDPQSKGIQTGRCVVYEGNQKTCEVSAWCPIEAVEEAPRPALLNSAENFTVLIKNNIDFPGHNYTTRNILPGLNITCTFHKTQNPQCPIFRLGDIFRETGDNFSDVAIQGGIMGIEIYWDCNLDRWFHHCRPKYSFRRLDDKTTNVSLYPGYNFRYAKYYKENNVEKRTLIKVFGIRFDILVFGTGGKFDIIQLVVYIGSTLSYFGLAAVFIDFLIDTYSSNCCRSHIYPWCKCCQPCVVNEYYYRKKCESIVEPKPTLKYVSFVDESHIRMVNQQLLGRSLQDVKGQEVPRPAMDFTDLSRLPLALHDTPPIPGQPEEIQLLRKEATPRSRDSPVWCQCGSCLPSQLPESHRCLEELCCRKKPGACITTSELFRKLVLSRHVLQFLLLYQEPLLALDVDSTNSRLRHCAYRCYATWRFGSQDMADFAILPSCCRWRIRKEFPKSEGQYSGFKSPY
# assay.notes: Antagonist activity at P2X7 receptor in human THP1 cells assessed as inhibition of BzATP-induced ethidium uptake
# Type: functional, cell-based, THP-1
# condition.info: thp-1

>  <given.smiles>
O=C(NCC12CC3CC(CC(C3)C1)C2)c1cc(CCCNCCc2cnc[nH]2)ccc1Cl

>  <pIC50>
> 5

$$$$
>  <given.smiles>
C[C@@H]1CN(CC(=O)Nc2cccc3ncccc23)CCN1S(=O)(=O)c1ccc(S(C)(=O)=O)cc1

>  <pIC50>
>= 5

$$$$
>  <given.smiles>
O=C(NCC12CC3CC(CC(C3)C1)C2)c1cc(OCCCNCCCO)ccc1Cl

>  <pIC50>
> 5

$$$$
>  <given.smiles>
O=C(NCC12CC3CC(CC(C3)C1)C2)c1cc(OC2CCNCC2)ncc1Cl

>  <pIC50>
> 5

$$$$

###

Below, each entry is listed alongside its reported IC50.
# measured.target: P2X purinoceptor 7 (Homo sapiens, UniProt Q99572)
# assay.notes: Antagonist activity at human P2X7 receptor expressed in human U373 cells assessed as inhibition of BzATP-induced Yo-Pro uptake
# Assay type: functional, cell-based, U-373MG ATCC

`COc1ccc(CCC2=N[C@H](c3ccccc3)[C@H](c3ccccc3)N2)cc1` has a reported IC50 of > 3160 nM

Briefly, IC50 measured for `Clc1ccccc1CCC1=N[C@@H](c2ccccc2)[C@@H](c2ccccc2)N1` : 63.1 nM

What the record says about `Clc1ccc(CCC2=N[C@H](c3ccccc3)[C@H](c3ccccc3)N2)cc1` : IC50 is > 1000 nM

###

# measured.target: P2X purinoceptor 7 (Homo sapiens)
# assay.notes: Antagonist activity at P2X7 receptor in human THP1 cells assessed as inhibition of BzATP-induced ethidium uptake
# Type: functional, cell-based, THP-1
pIC50: −log10 of the molar value.
measured.endpoint: pIC50

The following molecules have reported results that may help.
>  <molecule>
CC(=O)NC(CCc1ccncc1)COc1ccc(-c2cccc([N+](=O)[O-])c2)cc1 (stereo unspecified)

>  <measured.target>
P2X purinoceptor 7 (Homo sapiens)

>  <pIC50>
< 5.00

$$$$
>  <molecule>
COC(=O)NC(CCc1ccncc1)COc1ccc(-c2cccc([N+](=O)[O-])c2)cc1 (stereo unspecified)

>  <measured.target>
P2X purinoceptor 7 (Homo sapiens)

>  <pIC50>
< 5.00

$$$$
>  <molecule>
CCS(=O)(=O)N1CCc2c(ccc(C)c2NC(=O)Cc2ccc(C(F)(F)F)c(F)c2)C1

>  <measured.target>
P2X purinoceptor 7 (Homo sapiens)

>  <pIC50>
7.60

$$$$
>  <molecule>
COC(=O)N(C)C(CCc1ccncc1)COc1ccc(-c2cccc([N+](=O)[O-])c2)cc1 (stereo unspecified)

>  <measured.target>
P2X purinoceptor 7 (Homo sapiens)

>  <pIC50>
< 5.00

$$$$
>  <molecule>
O=C(NC12CC3CC(CC(C3)C1)C2)c1ccccc1Cl

>  <measured.target>
P2X purinoceptor 7 (Homo sapiens)

>  <pIC50>
< 5.00

$$$$

Field: next molecule
The molecule `O=C(CC12CC3CC(CC(C3)C1)C2)Nc1c(Cl)ccc2nc(CN3CCN(CCO)CC3)ccc12` showed pIC50 equal to 7.70
